- target.or.system: Gox0644 (Gluconobacter oxydans, UniProt Q5FT75)
- experiment.description: NADPH-dependent α-ketocarbonyl reductase activity assay (rate of decrease of NADPH at 340 nm)
- Format: biochemical
- condition.label: Table 3; 10 mM substrate, 40 mM K-phosphate buffer pH 7.0, 0.05 mM NAD(P)H, 30 °C; U/mg = µmol x min^-1 x mg protein^-1
Please note: yes (1) applies when Gox0644 U/mg* is 60 U/mg or greater, and no (0) applies otherwise.

Answered examples (5):
compound	assigned.label
CCC(=O)C(=O)CC	no (0)
CCC(=O)C(C)=O	yes (1)
CCCC(=O)C(C)=O	no (0)
CC(=O)C=O	no (0)
CCOC(=O)C(C)=O [ethyl pyruvate]	yes (1)

Kindly determine if Gox0644 U/mg* recorded for `O=CC(=O)c1ccccc1` is above or exactly 60 U/mg.
yes (1)

Kindly determine if Gox0644 U/mg* recorded for CC(=O)C(=O)OCCC(C)C [isoamyl pyruvate] is above or exactly 60 U/mg.
yes (1)

Kindly determine if Gox0644 U/mg* recorded for `CC(=O)C(=O)c1ccccc1` is above or exactly 60 U/mg.
yes (1)
